Cited source for all entries: patent EP4703354A1

Give measured Liver microsome T1-2 (min) Rat for each item. Keep answers brief.
Experiment: in vitro liver microsome metabolic stability, rat
Type: in vitro ADME
Conditions: Rat liver microsomes, 37°C
Give bare numbers, in min.

The examples below pair each entry with its known result.
Given the compound CN(C)C(=O)c1nccc(Nc2c(N[C@@H](C#CC3CCC3)[C@]3(C)CC(F)(F)CO3)c(=O)c2=O)c1O (single isomer, unassigned) [110A] , write its reported Liver microsome T1-2 (min) Rat.
292.82

Given the compound CN(C)C(=O)c1nccc(Nc2c(NC(c3nc(Cl)ccc3F)C3(C)CC4CC4C3)c(=O)c2=O)c1O (stereo not shown) , write its reported Liver microsome T1-2 (min) Rat.
56.96

Given the compound CN(C)C(=O)c1nccc(Nc2c(NC(c3nc(C(F)(F)F)ccc3F)C3(C)CC(F)(F)CO3)c(=O)c2=O)c1O (stereo not shown) , write its reported Liver microsome T1-2 (min) Rat.
195.59

I have 4 compounds here; please give me Liver microsome T1-2 (min) Rat for each one.
1. Cc1cccnc1[C@H](Nc1c(Nc2ccnc(C(=O)N(C)C)c2O)c(=O)c1=O)[C@]1(C)CC(F)(F)CO1 (single isomer, unassigned) [128B]
2. CN(C)C(=O)c1nccc(Nc2c(NC(C#CC3CCC3)C3(C)CC(F)(F)CO3)c(=O)c2=O)c1O (stereo not shown)
3. CN(C)C(=O)c1nccc(Nc2c(N[C@@H](c3ccc(F)cn3)C3(C)CCCC3)c(=O)c2=O)c1O
4. Cc1cccnc1[C@@H](Nc1c(Nc2ccnc(C(=O)N(C)C)c2O)c(=O)c1=O)[C@@]1(C)CCC(F)(F)C1 [125C]

216.24
97.61
101.29
32.18

----------
Biological target: human CCR6 (Homo sapiens)
Construct: expressed in transfected cells; host or cells: HEK293
Sequence (P51684 whole entry): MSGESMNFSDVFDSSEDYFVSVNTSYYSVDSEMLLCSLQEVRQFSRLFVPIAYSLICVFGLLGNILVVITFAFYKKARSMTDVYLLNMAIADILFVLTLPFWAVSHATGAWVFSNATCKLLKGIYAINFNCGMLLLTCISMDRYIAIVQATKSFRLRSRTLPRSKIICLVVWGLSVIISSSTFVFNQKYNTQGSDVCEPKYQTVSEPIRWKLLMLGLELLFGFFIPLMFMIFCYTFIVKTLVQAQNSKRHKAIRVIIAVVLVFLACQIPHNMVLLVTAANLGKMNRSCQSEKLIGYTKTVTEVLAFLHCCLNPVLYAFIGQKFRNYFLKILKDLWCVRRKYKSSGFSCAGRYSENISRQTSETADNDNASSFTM
Experiment: human CCR6 calcium flux activity (FLIPR, HEK293 cells stably expressing human CCR6, CCL20 stimulation)
Type: cell-based
Conditions: ratio of CXCR2 IC50 to CCR6 IC50
Give measured CCR6 selectivity for each item. Keep answers brief.

Given the compound `CN(C)C(=O)c1nccc(Nc2c(N[C@@H](c3nc(F)ccc3Cl)C3(C)CCCC3)c(=O)c2=O)c1O` , write its reported CCR6 selectivity.
282.4

Given the compound `CN(C)C(=O)c1nccc(Nc2c(N[C@@H](c3cccc(C(F)F)n3)C3(C)CCCC3)c(=O)c2=O)c1O` , write its reported CCR6 selectivity.
196.0

Given the compound `CN(C)C(=O)c1nccc(Nc2c(N[C@@H](C#CC3CCC3)C3(C)CCCC3)c(=O)c2=O)c1O` , write its reported CCR6 selectivity.
13.1

Given the compound `CN(C)C(=O)c1nccc(Nc2c(N[C@@H](c3ccc(F)cn3)C3(C)CCCC3)c(=O)c2=O)c1O` , write its reported CCR6 selectivity.
115.0

Given the compound CN(C)C(=O)c1nccc(Nc2c(N[C@@H](C#CC3CCC3)[C@]3(C)CC(F)(F)CO3)c(=O)c2=O)c1O (single isomer, unassigned) [110A] , write its reported CCR6 selectivity.
32.0

I have 2 compounds here; please give me CCR6 selectivity for each one.
1. CNC(=O)c1c(Cl)ccc(Nc2c(N[C@@H](c3ncccc3C)C3(C)CCCC3)c(=O)c2=O)c1O
2. Cc1cc(F)cnc1[C@H](Nc1c(Nc2ccnc(C(=O)N(C)C(C)C)c2O)c(=O)c1=O)C1(C)CCCC1

[1730.2, 2522.7]
